measurement-description: qHTS assay to identify small molecule agonists of the hypoxia (HIF-1) signaling pathway - cell viability counter screen (AID 1224844); note: nearly all actives have a fitted effect of over 50% in size; note: potency is the fitted concentration of half-maximal effect
measurement-conditions: HRE-bla ME-180 viability, CellTiter-Glo luminescence, 17 h; series mostly up to 76.8 µM
Inconclusive results are not listed. Calls of active or inactive are those of the source. Calls come from the whole dose curve.
experimental-endpoint: Potency

1. C=CC(=O)OCCn1c(=O)n(CCOC(=O)C=C)c(=O)n(CCOC(=O)C=C)c1=O ... 12.3 µM (active)
2. CC(C)(C)C(=O)OCOC(=O)C1N2C(=O)CC2S(=O)(=O)C1(C)C (centres undefined) ... inactive
3. NC(=O)NS(=O)(=O)c1ccc(N)cc1 ... inactive
4. O=C(Nc1cccc(C(F)(F)F)c1)c1cc(Br)cc(Br)c1O ... 19.5 µM (active)
5. NNC(=O)c1cccc(C(=O)NN)c1 ... inactive
6. CC(C)(C)c1ccc(C(=O)O)cc1 ... inactive
7. N#CC1(c2ccc(F)cc2)CCC(=O)CC1 ... inactive
8. [Cl][Au]([Cl])[Cl] ... 3.89 µM (active)
9. Nc1cc(C(F)(F)F)ccc1S ... inactive
10. O=[N+]([O-])c1cc([N+](=O)[O-])c2ccc(S(=O)(=O)O)cc2c1O ... inactive
11. Oc1cccc(-c2c3nc(c(-c4cccc(O)c4)c4ccc([nH]4)c(-c4cccc(O)c4)c4nc(c(-c5cccc(O)c5)c5ccc2[nH]5)CC4)C=C3)c1 ... inactive
12. Oc1ccc(C2(c3ccc(O)cc3)CC3CC2C2CCCC32)cc1 (centres undefined) ... 33.3 µM (active)
13. [Cl][Bi]([Cl])([c]1ccccc1)([c]1ccccc1)[c]1ccccc1 ... 19.4 µM (active)
14. CC(=O)OCC(C)OC(C)=O (centres undefined) ... inactive
15. CN(C/C=C/C#CC(C)(C)C)Cc1cccc2ccccc12 ... inactive
16. CCCCCCCCOc1ccccc1C(=O)Nc1ccc(C(=O)OCC[N+](C)(CC)CC)cc1 ... 7.56 µM (active)
17. CCCCCOC(=O)CCCC ... inactive
18. CCN(CC)CCNC(=O)c1c(C)[nH]c(/C=C2\C(=O)Nc3ccc(F)cc32)c1C ... 9.52 µM (active)
19. CCCCCCCCCCCC(=O)NCCCN(C)C ... 49 µM (active)

====

measured-target: Vitamin D3 receptor (Homo sapiens)
measurement-description: qHTS assay to identify small molecule antagonists of the vitamin D receptor (VDR) signaling pathway (AID 743223)
measurement-conditions: VDR-UAS-bla HEK293T, beta-lactamase FRET ratio, 16 h; series mostly up to 61 µM
Results filed as inconclusive are left out. The source made the active and inactive calls. The call rests on the fitted dose curve; in most records, active means well fitted inhibition curve with a large enough effect in the signal ratio in the repeat runs (not every such curve was filed as active); inconclusive means weak or mixed curves, or effect the other way; inactive means no such curve, though single readings can be large or run the other way; the % refers to the signal ratio.
Possible outcomes: active, inactive

1. Cc1oc(-c2ccccc2)nc1CCC(=O)c1ccc(CC2SC(=O)NC2=O)cc1 (stereo not given) ... inactive
2. CCOC(=O)O[C@H](C)OC(=O)c1ccc2c(c1)cc(C(=O)NC1CCN(C(C)C)CC1)n2Cc1cc(-c2ccc(Cl)s2)on1 ... active
3. CCCCCCC[N+](CC)(CC)CCCCc1ccc(Cl)cc1 ... inactive
4. NNc1nc(-c2ccc([N+](=O)[O-])cc2)cs1 ... inactive
5. CCc1cc(Cc2cc(CC)c(N)c(CC)c2)cc(CC)c1N ... inactive
